- Test system: T1, PUF4 RNA-binding domain (Saccharomyces cerevisiae, UniProt P25339 537-888)
- T1 sequence: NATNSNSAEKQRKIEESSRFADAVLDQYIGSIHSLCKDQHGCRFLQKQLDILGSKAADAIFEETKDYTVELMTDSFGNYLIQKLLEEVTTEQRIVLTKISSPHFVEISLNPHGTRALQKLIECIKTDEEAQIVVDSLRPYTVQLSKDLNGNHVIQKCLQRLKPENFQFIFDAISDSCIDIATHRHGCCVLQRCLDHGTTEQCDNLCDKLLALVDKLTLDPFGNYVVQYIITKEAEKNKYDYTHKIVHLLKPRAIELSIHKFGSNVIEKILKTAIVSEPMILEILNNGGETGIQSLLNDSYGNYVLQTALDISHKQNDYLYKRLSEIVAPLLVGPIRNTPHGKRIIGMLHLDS
- Method summary: Mg; RNA-MaP; 20 mM Na-HEPES pH 7.4, 30 mM KOAc, 0.75 mM MgCl2, 0.1% Tween-20, 5% glycerol, 0.1 mg/mL BSA, 2 mM DTT; 25 C; 0.0125-409.6 nM protein
- Condition context: tags: N-His6-TEV cleaved; C-SNAP kept, Cy3B-labelled; label: tethered on chip by stalled RNA polymerase
Experimental endpoint: log10 of Kd (log10 of the value in nM)
Reminder: these figures are log10 of reported Kd, in nM before transformation.

Request: I am curious: what log10 of Kd value has been reported for UCUCUUUGUAUUCCCAUUAUCUCUU (ssRNA) [Ie_S1_P5E.1_K5.1_C5.1_H5.1_A5.1_[+6CCC]_F5.1_T5.1] ?
Response: 2.54

Request: Same thing, different binder: Ib_S4_P4E.1_K4.1_C4.1_H4.1_A4.1_[T7G]_F4.1_[T8C]_T4.1 (ssRNA) RNA: UUUGACAACUGAUCGUUCUUUCUUGUAUAGCAUUCUUUCUCGAUCAGUUGUCUUU
Response: 1.71

Request: Same thing, different binder: ACAAACUAUAUUAAUAACAAAC (ssRNA) [Ib_S3_P5E.1_K5.1_C5.1_H5.1_[G2A]_A5.1_F5.1_[T8A]_T5.1]
Response: 3.20

Request: Same thing, different binder: UCUCUUUCCUGUAAUAUUAUAUCUCUU (ssRNA) [Id_iii_S1_P5E.8_K5.4_C5.3_[T-1C]_H5.1_A5.2_F5.1_T5.2]
Response: 0.86

Request: Same thing, different binder: UCUCUUUGUAAUAACUUCUCUU (ssRNA) [Ic_S1_P5E.1_K5.1_C5.1_H5.1_A5.1_[T5A]_F5.1_[T8A]_[T9C]_[A10T]_T5.1]
Response: 3.04

Request: Same thing, different binder: Ie_S2_P3E.2_K3.1_C3.2_H3.1_[+1T]_A3.1_F3.1_T3.2 (ssRNA) RNA: UUUGAUUAAUAUGAUAUCGUUCUUUCUCUUUGUAUAUAUAUUCUUUCUCGAUAUCAUAUUAAUCUUU
Response: 0.05

Request: Same thing, different binder: Ic_S2_P5E.1_K5.1_C5.1_H5.1_A5.1_[T5C]_[T6C]_[A7C]_F5.1_[A10T]_T5.1 (ssRNA) RNA: UUUGAUUAAUAUGAUAUCGUUCUUUCUUGUACCCUUUUUCUUUCUCGAUAUCAUAUUAAUCUUU
Response: 0.94

Request: Same thing, different binder: Ie_S2_P3E.2_K3.1_C3.2_H3.1_[+3TTC]_A3.1_F3.1_T3.2 (ssRNA) RNA: UUUGAUUAAUAUGAUAUCGUUCUUUCUCUUGUUUCAUAUAUAUUCUUUCUCGAUAUCAUAUUAAUCUUU
Response: 0.95
